B1: NP_116010.1 (parent)
chain: HSLRAVSTDPPHHDHHDEFCLMP

Variants of: B1
test description: protein stability index of a GFP-peptide fusion (GPS, HEK-293T) (PSI 1-6); higher = more stable;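 further: lentivirally expressed fusion library, cells FACS-sorted into six equal-sized GFP/DsRed ratio bins, PSI computed from sequencing read fractions per bin weighted by bin number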
experimental setup: c terminus: native
Quick reference for protein stability index among some variants
The answer should be written as a number, with no unit following it.

HSLRAVSTDPPMHDHHDEFCLMP [H12M]    2.52

Form: variant = HSLGAVSTDPPHHDHHDEFCLMP [R4G] ; protein stability index = 3.32

Form: variant = HSLRAVSTDPPHHDHHNEFCLMP [D17N] ; protein stability index = 2.4

Form: variant = HSLRAVTTDPPHHDHHDEFCLMP [S7T] ; protein stability index = 2.33

Form: variant = HSLRAVSTDPPHHDFHDEFCLMP [H15F] ; protein stability index = 2.32

Form: variant = HSLRAVSTDPPHHDWHDEFCLMP [H15W] ; protein stability index = 2.14

Form: variant = HSLRAVSTDPIHHDHHDEFCLMP [P11I] ; protein stability index = 2.58
